This listing pairs sequences with measured MIC.
System: P. aeruginosa
Assay type: cell-based, Pseudomonas aeruginosa
Ends that are not written are not given here.
MEASURED ATTRIBUTE: MIC (µg/mL)

residues="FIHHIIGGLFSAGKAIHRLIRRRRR [TP4]" unit_abbrev=µg/mL result_qualifier== val=64
residues="FIHHIIGGLFSAGKARHRLIRRRRR [I16R]" unit_abbrev=µg/mL result_qualifier=> val=512
residues="FIHHIIGGLFSAGKAIHSLIHRRRR [R18S/R21H]" unit_abbrev=µg/mL result_qualifier== val=256
residues="HHIIGGLFSAGKAIHRLIRRRRR [dN2]" unit_abbrev=µg/mL result_qualifier== val=512
residues="FIHHIIGGAASAGKAIHRLIRRRRR [L9A/F10A]" unit_abbrev=µg/mL result_qualifier=> val=512
residues="FIHHIIGGLFSVGKHIHRLIRRRRR [A12V/A15H]" unit_abbrev=µg/mL result_qualifier== val=128
residues="FIHHIIGGLFSAGKAIHRLIR [dC4]" unit_abbrev=µg/mL result_qualifier=> val=512
residues="FIAAIIGGLFSAGKAIHRLIRRRRR [H3A/H4A]" unit_abbrev=µg/mL result_qualifier=> val=512
residues="FIHHIIGGLFSAGKAIHRLIRRR [dC2]" unit_abbrev=µg/mL result_qualifier== val=512
residues="FIHHIIGGLFSVGKHIHSLIHRRRR [VHSH]" unit_abbrev=µg/mL result_qualifier=> val=512
residues="FIHHIIGGLFSVGKHIHSLIHGH [TP3, reference compound]" unit_abbrev=µg/mL result_qualifier=> val=512
residues="FIHHIIGGLFSAGKAAHRLIRRRRR [I16A]" unit_abbrev=µg/mL result_qualifier== val=256
residues="FIHHIIGGLFSAGKAEHRLIRRRRR [I16E]" unit_abbrev=µg/mL result_qualifier=> val=512
residues="AAHHIIGGLFSAGKAIHRLIRRRRR [F1A/I2A]" unit_abbrev=µg/mL result_qualifier== val=256
